B1: KRT71 (parent)
chain: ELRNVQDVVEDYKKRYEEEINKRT

Variants of: B1
procedure-details: protein stability index of a GFP-peptide fusion (GPS, HEK-293T) (PSI 1-6); higher = more stable;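 further: lentivirally expressed fusions sorted by FACS into six bins by GFP to DsRed ratio, PSI derived from sequencing read proportions per bin multiplied by bin number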
particulars: c terminus: a fixed tail appended
Answer each item with its documented protein stability index.
Give a plain numeric answer without units written out.

Prompt: Look up and state reported protein stability index for I20V
Response: 4.2

Prompt: Look up and state reported protein stability index for N4H
Response: 4.45

Prompt: Look up and state reported protein stability index for K14Q
Response: 3.49

Prompt: Look up and state reported protein stability index for V5A
Response: 3.8

Prompt: Look up and state reported protein stability index for E10S
Response: 3.65

Prompt: Look up and state reported protein stability index for V9D
Response: 4.93

Prompt: Look up and state reported protein stability index for R23T
Response: 4.69

Prompt: Look up and state reported protein stability index for I20T
Response: 3.65

Prompt: Look up and state reported protein stability index for K14E
Response: 4.51

Prompt: Look up and state reported protein stability index for E17A
Response: 2.84

Prompt: Look up and state reported protein stability index for K22N
Response: 4.11

Prompt: Look up and state reported protein stability index for R15L
Response: 4.86

Prompt: Look up and state reported protein stability index for D11P
Response: 3.44

Prompt: Look up and state reported protein stability index for V5W
Response: 3.7

Prompt: Look up and state reported protein stability index for E19R
Response: 4.11

Prompt: Look up and state reported protein stability index for E17N
Response: 4.29

Prompt: Look up and state reported protein stability index for E17V
Response: 3.93

Prompt: Look up and state reported protein stability index for R23L
Response: 3.63

Prompt: Look up and state reported protein stability index for E18G
Response: 3.16

Prompt: Look up and state reported protein stability index for V9K
Response: 3.48

Prompt: Look up and state reported protein stability index for R15H
Response: 2.8

Prompt: Look up and state reported protein stability index for K14N
Response: 3.58

Prompt: Look up and state reported protein stability index for E17I
Response: 3.57

Prompt: Look up and state reported protein stability index for Y12N
Response: 4.89

Prompt: Look up and state reported protein stability index for V5D
Response: 4.58

Prompt: Look up and state reported protein stability index for T24D
Response: 4.64

Prompt: Look up and state reported protein stability index for R3E
Response: 4.15

Prompt: Look up and state reported protein stability index for Y16G
Response: 2.71

Prompt: Look up and state reported protein stability index for L2P
Response: 4.96

Prompt: Look up and state reported protein stability index for R3Y
Response: 3.86

Prompt: Look up and state reported protein stability index for K22L
Response: 3.28

Prompt: Look up and state reported protein stability index for Y12W
Response: 3.98

Prompt: Look up and state reported protein stability index for I20M
Response: 4.12

Prompt: Look up and state reported protein stability index for E17S
Response: 3.86

Prompt: Look up and state reported protein stability index for K13Q
Response: 3.71

Prompt: Look up and state reported protein stability index for E1F
Response: 4.14

Prompt: Look up and state reported protein stability index for Y12F
Response: 3.85

Prompt: Look up and state reported protein stability index for E18R
Response: 4.26

Prompt: Look up and state reported protein stability index for R15S
Response: 3.63

Prompt: Look up and state reported protein stability index for N4T
Response: 4.08

Prompt: Look up and state reported protein stability index for Y16T
Response: 3.89

Prompt: Look up and state reported protein stability index for V5K
Response: 3.75

Prompt: Look up and state reported protein stability index for E10V
Response: 3.11

Prompt: Look up and state reported protein stability index for D11R
Response: 3.29

Prompt: Look up and state reported protein stability index for L2A
Response: 5.76

Prompt: Look up and state reported protein stability index for N21L
Response: 3.83

Prompt: Look up and state reported protein stability index for Y12R
Response: 3.66

Prompt: Look up and state reported protein stability index for K13M
Response: 3.12

Prompt: Look up and state reported protein stability index for Q6C
Response: 2.77

Prompt: Look up and state reported protein stability index for I20Y
Response: 3.15

Prompt: Look up and state reported protein stability index for N21V
Response: 4.3

Prompt: Look up and state reported protein stability index for V9P
Response: 4.21

Prompt: Look up and state reported protein stability index for K13R
Response: 4.62

Prompt: Look up and state reported protein stability index for E19P
Response: 4.28

Prompt: Look up and state reported protein stability index for N21Q
Response: 3.51

Prompt: Look up and state reported protein stability index for V9Q
Response: 3.66

Prompt: Look up and state reported protein stability index for Y12T
Response: 4.05

Prompt: Look up and state reported protein stability index for Y12I
Response: 3.13

Prompt: Look up and state reported protein stability index for T24M
Response: 3.54

Prompt: Look up and state reported protein stability index for Y12V
Response: 4.23

Prompt: Look up and state reported protein stability index for E18S
Response: 3.23

Prompt: Look up and state reported protein stability index for K13S
Response: 3.51

Prompt: Look up and state reported protein stability index for K13C
Response: 2.71

Prompt: Look up and state reported protein stability index for E17K
Response: 3.24

Prompt: Look up and state reported protein stability index for V9N
Response: 3.24

Prompt: Look up and state reported protein stability index for K13H
Response: 3.73

Prompt: Look up and state reported protein stability index for I20C
Response: 4.07

Prompt: Look up and state reported protein stability index for E18I
Response: 3.07

Prompt: Look up and state reported protein stability index for L2G
Response: 5.65

Prompt: Look up and state reported protein stability index for K22F
Response: 4.47

Prompt: Look up and state reported protein stability index for Y16W
Response: 2.68

Prompt: Look up and state reported protein stability index for V5G
Response: 3.92

Prompt: Look up and state reported protein stability index for T24P
Response: 4.39

Prompt: Look up and state reported protein stability index for R15A
Response: 4.63

Prompt: Look up and state reported protein stability index for I20W
Response: 3.2

Prompt: Look up and state reported protein stability index for E18Y
Response: 3.85

Prompt: Look up and state reported protein stability index for N21C
Response: 3.73

Prompt: Look up and state reported protein stability index for I20E
Response: 3.6

Prompt: Look up and state reported protein stability index for L2S
Response: 5.01

Prompt: Look up and state reported protein stability index for D7M
Response: 3.35

Prompt: Look up and state reported protein stability index for K13V
Response: 3.25

Prompt: Look up and state reported protein stability index for R3Q
Response: 4.13

Prompt: Look up and state reported protein stability index for L2N
Response: 5.02

Prompt: Look up and state reported protein stability index for D7K
Response: 3.28

Prompt: Look up and state reported protein stability index for T24E
Response: 4.57

Prompt: Look up and state reported protein stability index for D11E
Response: 3.5

Prompt: Look up and state reported protein stability index for R23S
Response: 4.27

Prompt: Look up and state reported protein stability index for T24N
Response: 3.14

Prompt: Look up and state reported protein stability index for Y12E
Response: 2.66

Prompt: Look up and state reported protein stability index for E10C
Response: 3.62

Prompt: Look up and state reported protein stability index for Y12P
Response: 3.53
